Molecular target: Retinaldehyde dehydrogenase 3 (Homo sapiens) (UniProt P47895)
Experiment: qHTS for Inhibitors of the Aldehyde Dehydrogenase Family (ALDH1A3) Validation screen (AID 2061312); note: nearly all actives have a fitted effect of over 45% in size
Conditions: ALDH1A3 enzyme inhibition qHTS validation, fluorescence; series mostly up to 84.7 µM
Records with an inconclusive call do not appear. Calls of active or inactive are those of the source. Calls come from the whole dose curve; as a rule, active = well fitted inhibition curve with a large enough effect; inconclusive = small, poorly fitted or top-dose-only effect; inactive = no such curve, though single readings can be large or run the other way.
Result category, one only: active, inactive

Recorded results for 4 molecules are shown here.
CN1CCN(C(=O)CN[C@@H]2C[C@H]2c2ccc(OCc3ccccc3)cc2)CC1 :: active
COc1cccc(C(=O)NCCN2CCN(c3ccc(Cl)cc3)CC2)c1 :: inactive
CCC1(c2ccccc2)C(=O)NCNC1=O :: inactive
Cc1onc(-c2c(Cl)cccc2Cl)c1CC(=O)NCc1ccc(OCC(F)(F)F)nc1 :: inactive

We now examine a further molecule.
How did this test come out for `COc1ccccc1-n1c(SCC(=O)Nc2nc3ccc(C)cc3s2)nc2c(c1=O)SCC2` ?
inactive
